# ASSAYED_TARGET: His-tagged p53-Y220C DNA binding domain (Homo sapiens, UniProt P04637, Y220C)
# METHOD: Biochemical p53-Y220C and DNA binding assay (HTRF)
# PROTOCOL_CONDITIONS: inflection point of 10 points dose titration, 4 parameter curve fit; p53-Y220C DBD 100 nM, biotinylated dsDNA 200 nM, 27 to 29° C.; read-out: HTRF IP
MEASUREMENT_KIND: EC50

Below, 3 compounds whose answers are already recorded.
{"COMPOUND": "CC[C@H](CO)O/N=C/c1sc2c(NC3CNCC3F)cccc2c1CC(F)(F)F (stereo in doubt)", "EC50": "> 1000 nM"}
{"COMPOUND": "CN1CC[C@@H](Nc2cccc3c(CC(F)(F)F)c(/C=C/C(O)c4cn[nH]c4)sc23)[C@@H](F)C1 (stereo partly shown)", "EC50": "100 to 1000 nM"}
{"COMPOUND": "OCC(Cn1cccn1)O/N=C/c1sc2c(N[C@@H]3CNC[C@@H]3F)cccc2c1CC(F)(F)F (stereo partly shown)", "EC50": "> 1000 nM"}

Now examine the next entry.
## Input Endpoint output: EC50 of OCC1(O/N=C/c2sc3c(N[C@@H]4CNC[C@@H]4F)cccc3c2CC(F)(F)F)CCCOC1 (stereo partly shown) . Value?
## Output > 1000 nM
